# Experimental Protocol: Antioxidant activity assessed as DPPH radical scavenging activity after 30 mins by UV-spectrophotometry
# Assay type: physicochemical
Entries and their IC50
Reply numerically in µg/mL, unit not repeated.

Worked cases, IC50 given:
{"Compound Smiles": "O=C(O)c1cc(O)c(O)c(O)c1", "Measure Unit": "µg/mL", "Number": 8.42}
{"Compound Smiles": "Oc1cc(O)c2c(c1)O[C@@]1(c3ccc(O)c(O)c3)Oc3cc(O)c4c(c3[C@@H]2[C@H]1O)O[C@H](c1ccc(O)c(O)c1)[C@H](O)C4", "Measure Unit": "µg/mL", "Number": 9.71}
{"Compound Smiles": "Oc1cc(O)c2c(c1)O[C@@]1(c3ccc(O)c(O)c3)Oc3cc(O)c4c(c3[C@@H]2[C@H]1O)O[C@H](c1ccc(O)c(O)c1)[C@@H](O)C4", "Measure Unit": "µg/mL", "Number": 8.55}

Now for another entry.
Lookup result for "Oc1cc(O)c2c(c1)O[C@@]1(c3ccc(O)c(O)c3)Oc3cc(O)c4c(c3[C@@H]2[C@H]1O)O[C@H](c1ccc(O)c(O)c1)[C@H](O)[C@H]4c1c(O)cc(O)c2c1O[C@H](c1ccc(O)c(O)c1)[C@H](O)C2" ; measured IC50: 5.3

Ref: ChEMBL document CHEMBL3352682
